The measurements presented in this section are drawn from PubChem BioAssay (NCI).

Can you tell me growth for the items I'm about to list?
test system: U251 CNS; assay: NCI-60 one-dose screen, 48 h (100 = growth as untreated, 0 = no growth, -100 = all killed); conditions: 10 µM unless noted
The panel holds about 83,000 compounds, 20% with a hit somewhere; the sample as a whole holds those more often.
One number for each entry, in %.

>  <compound>
COc1ccc2c(CCCC(c3ccccc3)c3ccccc3)c3[n+](cc2c1OC)CCc1cc2c(cc1-3)OCO2

>  <observed-property>
growth

>  <reading>
-76.2

$$$$
>  <compound>
N#Cc1c(-c2ccc(Cl)cc2)csc1NC(=O)Nc1cccc(C(F)(F)F)c1

>  <observed-property>
growth

>  <reading>
6.02

$$$$
>  <compound>
COc1cc2c(cc1OCCCCCCN1CCN(c3ncnc4ccccc34)CC1)N=CC1CCCN1C2=O (stereo not drawn)

>  <observed-property>
growth

>  <reading>
0.0332

$$$$
>  <compound>
O=C(Nc1ccc(N=Nc2ccccc2)cc1)c1cccc2ccccc12

>  <observed-property>
growth

>  <reading>
63.6

$$$$
>  <compound>
COC(=O)[C@H](C)NC(=O)[C@@H](OC)[C@@H]1Cc2cc3cc(OC4CC(OC5CC(O)C(O)C(C)O5)C(O)C(C)O4)c(C)c(O)c3c(O)c2C(=O)[C@H]1OC1CC(OC2CC(OC3CC(C)(O)C(O)C(C)O3)C(O)C(C)O2)C(O)C(C)O1 (stereo partly drawn)

>  <observed-property>
growth

>  <reading>
7.45

$$$$

Can you give me growth for all of these, one by one?
1. COCCN1CCN(Cc2ccc(-c3n[nH]c4c3C(=O)c3c(NC(=O)NN5CCOCC5)cccc3-4)cc2)CC1
2. COc1cc(C(=O)NNC(=O)c2ccc(NC(=O)CCl)cc2)cc(OC)c1OC
3. CCNC(=O)C#Cc1ccc2c(C(=Nc3ccc(CN(C)C)cc3)c3ccccc3)c(O)[nH]c2c1

1.69
11.1
22.4
